- system_under_test: Metabotropic glutamate receptor 8 (Rattus norvegicus)
- assay_protocol: mGluR8 Gi/Go-coupled signaling modulation – cell-based, rat, thallium flux, HTS, primary screen (AID 488969)
- measurement_parameters: HEK293 rat mGluR8, GIRK thallium flux, FluoZin2; at 10 µM; stronger effect = higher value; submaximal glutamate (EC20) added with thallium
The full ranking holds about 110,000 compounds; the median of “z-score” is about -0.1, and the highest 2% start at about 2. Only a selection was taken, and the highest values are over-represented in it overall. Active and inactive are the calls of the source.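 Rule for the calls: active = z-score in the third read window above 3 or below -3; inactive = the rest.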
measured_parameter: z-score

These recorded examples may help you get a feel for the data.
compound: CCC(C)NC(=O)Cn1c(COc2ccc(Cl)cc2Cl)nc2ccccc21 (stereo unspecified)
measured_parameter: z-score
result: -2.32

compound: CCCCN(CCCC)c1nc2ccccc2nc1C(C#N)C(=O)NCCCOC (stereo unspecified)
measured_parameter: z-score
result: 6.64 (active)

compound: O=c1c2ccccc2sc2ccc(Cl)cc12
measured_parameter: z-score
result: -0.316

compound: COCCCNC(=O)C(C#N)c1nc2ccccc2nc1N1CCCC1 (stereo unspecified)
measured_parameter: z-score
result: -0.459

compound: COc1ccc2sc3ccccc3c(=O)c2c1
measured_parameter: z-score
result: -0.213

Task: Sample "CCNC(=O)c1ccccc1NC(=O)c1cccc(S(=O)(=O)N2CCC(C)CC2)c1" — what was its z-score?
Output: -1.17

Task: Same for "S=C(Nc1cccc2ccccc12)N1CCN(c2ncccn2)CC1"
Output: -0.1

---

Entries annotated with measured z-score
- system_under_test: Metabotropic glutamate receptor 8 (Rattus norvegicus) (UniProt P70579)
- Sequence (P70579 whole entry, looked up): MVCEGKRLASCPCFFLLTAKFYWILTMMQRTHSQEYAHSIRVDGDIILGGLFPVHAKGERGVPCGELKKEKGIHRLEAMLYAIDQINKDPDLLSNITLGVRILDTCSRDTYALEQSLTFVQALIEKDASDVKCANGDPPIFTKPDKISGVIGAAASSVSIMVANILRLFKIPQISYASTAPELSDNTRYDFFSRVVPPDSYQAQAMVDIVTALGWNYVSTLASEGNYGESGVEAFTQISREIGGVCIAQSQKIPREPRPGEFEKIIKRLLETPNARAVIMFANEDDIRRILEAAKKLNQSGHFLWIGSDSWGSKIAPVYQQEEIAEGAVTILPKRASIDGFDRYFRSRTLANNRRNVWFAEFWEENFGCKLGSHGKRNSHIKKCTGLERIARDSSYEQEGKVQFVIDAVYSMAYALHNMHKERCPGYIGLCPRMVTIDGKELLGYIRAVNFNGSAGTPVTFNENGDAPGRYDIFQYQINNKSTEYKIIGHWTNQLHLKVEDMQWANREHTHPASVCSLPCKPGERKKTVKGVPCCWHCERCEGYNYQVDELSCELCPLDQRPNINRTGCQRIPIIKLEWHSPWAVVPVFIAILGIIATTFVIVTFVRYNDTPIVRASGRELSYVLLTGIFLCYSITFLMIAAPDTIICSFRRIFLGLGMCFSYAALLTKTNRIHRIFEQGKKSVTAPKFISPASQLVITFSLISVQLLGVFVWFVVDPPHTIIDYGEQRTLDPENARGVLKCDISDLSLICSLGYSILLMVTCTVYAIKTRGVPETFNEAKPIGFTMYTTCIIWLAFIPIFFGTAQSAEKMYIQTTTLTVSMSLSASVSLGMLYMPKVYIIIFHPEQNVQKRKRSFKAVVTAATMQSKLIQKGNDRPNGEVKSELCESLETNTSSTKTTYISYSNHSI
- assay_protocol: mGluR8 Gi/Go-coupled signaling modulation – cell-based, rat, thallium flux, HTS, primary screen (AID 488969)
- measurement_parameters: HEK293 rat mGluR8, GIRK thallium flux, FluoZin2; at 10 µM; stronger effect = higher value; submaximal glutamate (EC20) added with thallium
Over roughly 110,000 compounds, “z-score” has its median near -0.1; the highest 2% begin near 2. This is one part of a sample in which the highest values are shown more often than they occur. Active and inactive are the calls of the source.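 How the source made its calls: active means z-score in the third read window above 3 or below -3; inactive means the rest.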

Worked cases, answers included:
compound: CC(NC(=O)COc1ccccc1)C(=O)NC1=NCCS1 (centres undefined)
measured_parameter: z-score
result: 3.96 (active)
//
compound: Cc1csc2nc(CNS(=O)(=O)N(C)C)cn12
measured_parameter: z-score
result: -0.402
//
compound: O=P(OC1CCCCC1)(OC1CCCCC1)C(O)c1ccccc1 (centres undefined)
measured_parameter: z-score
result: -0.904
//
compound: Nc1nnnn1/N=C/c1ccccc1OCc1ccccc1
measured_parameter: z-score
result: -0.208
//
compound: Cc1ccc(Cn2c(=N)n(CC(O)COc3ccccc3)c3ccccc32)cc1 (centres undefined)
measured_parameter: z-score
result: 2.98

Would you kindly look at the next entry?
Task: Which z-score is listed for "COc1ccc2nc(N3C(=O)/C(=C/c4ccc(Cl)cc4)NC3=S)sc2c1" ?
Output: 6.84 (active)

---

- system_under_test: Metabotropic glutamate receptor 8 (Rattus norvegicus) (UniProt P70579)
- assay_protocol: mGluR8 Gi/Go-coupled signaling modulation – cell-based, rat, thallium flux, HTS, primary screen (AID 488969)
- measurement_parameters: HEK293 rat mGluR8, GIRK (G protein-gated inwardly rectifying potassium channel) thallium flux, FluoZin2; at 10 µM; stronger effect = higher value; submaximal glutamate (EC20) added with thallium
Over roughly 110,000 compounds, “z-score” has its median near -0.1; the highest 2% begin near 2. Many of the other results were omitted from the sample, so the highest values are more common in it than they were.
Returns one of 1 (yes) or 0 (no); 1 (yes) when z-score is >= 0.5.

As a guide, the following entries are already answered.
compound: FC(F)(F)c1cnc2c(c1)Nc1ccccc1S2
group_label: 1 (yes)
//
compound: CCOC(=O)C1=C(C)NC(=O)NC1c1ccc(C)o1 (stereo unspecified)
group_label: 0 (no)
//
compound: CCOC(=O)C1=C(C)NC(=O)NC1c1ccc(Br)o1 (stereo unspecified)
group_label: 1 (yes)
//
compound: Cc1[nH]n2c(=O)cc(C(C)C)nc2c1-c1ccccc1
group_label: 0 (no)
//
compound: Cc1nn(C)c(C)c1CNC(=O)c1nn2c(c1Cl)NC(c1cccs1)CC2C(F)(F)F (stereo unspecified)
group_label: 0 (no)

Task: Does the compound "Cc1[nH]n2c(=O)cc(C(C)(C)C)nc2c1-c1ccccc1" have recorded z-score that is 0.5 or more?
Output: 1 (yes)

Task: Now give it for "Cc1cc(=O)n2[nH]c(C)c(-c3ccccc3)c2n1" too.
Output: 0 (no)
